This collection of values is drawn from patent US20230066156A1.

Biological target: human GPBAR1 (Homo sapiens, UniProt Q8TDU6)
Sequence (Q8TDU6 1-330): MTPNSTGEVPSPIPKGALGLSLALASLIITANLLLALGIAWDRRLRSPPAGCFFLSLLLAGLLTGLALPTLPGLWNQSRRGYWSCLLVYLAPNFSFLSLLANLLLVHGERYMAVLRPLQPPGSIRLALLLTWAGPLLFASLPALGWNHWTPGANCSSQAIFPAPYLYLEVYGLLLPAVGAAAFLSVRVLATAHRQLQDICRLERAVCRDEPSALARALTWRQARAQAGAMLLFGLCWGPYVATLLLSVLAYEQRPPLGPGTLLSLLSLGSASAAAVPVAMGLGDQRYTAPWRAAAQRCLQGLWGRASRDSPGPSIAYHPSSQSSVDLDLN
Assay: GPBAR1 mediated transactivation, CRE-luciferase reporter in transfected HEK-293T cells
Settings: HEK-293T CRE-luciferase transactivation
Field: log10 EC50. Provide a value for each of the compounds that follow.
Scale type: logarithmic (base 10). Underlying EC50 unit: µM.

Q. Specify reported log10 EC50 for the compound shown: CC[C@@]1(O)C[C@H]2[C@@H]3CC[C@H]([C@H](C)CC#N)[C@@]3(C)CC[C@@H]2[C@@]2(C)CC[C@@H](O)C[C@@H]12 [PBT110A]
A. -0.18

Q. Kindly indicate its recorded log10 EC50. Item: C[C@H](CC#N)[C@H]1CC[C@H]2[C@@H]3C[C@@](O)(c4ccccc4)[C@@H]4C[C@H](O)CC[C@]4(C)[C@H]3CC[C@]12C
A. 0.66

Q. Please supply the value of reported log10 EC50 for the item CC[C@]1(O)C[C@H]2[C@@H]3CC[C@H]([C@H](C)CC#N)[C@@]3(C)CC[C@@H]2[C@@]2(C)CC[C@@H](O)C[C@@H]12 [PBT110B]
A. -0.52

Q. Entry C[C@H](CC#N)[C@H]1CC[C@H]2[C@@H]3C[C@](O)(Cc4ccccc4)[C@@H]4C[C@H](O)CC[C@]4(C)[C@H]3CC[C@]12C needs its log10 EC50 filled in; supply it.
A. 0.97

Q. Please report the measured log10 EC50 for C[C@H](CC#N)[C@H]1CC[C@H]2[C@@H]3C[C@](C)(O)[C@@H]4C[C@H](O)CC[C@]4(C)[C@H]3CC[C@]12C [PBT109B]
A. 0.84

Q. For the compound C=C[C@]1(O)C[C@@H]2[C@H](CC[C@]3(C)[C@@H]([C@H](C)CC#N)CC[C@@H]23)[C@@]2(C)CC[C@@H](O)C[C@H]21 , give its reported log10 EC50.
A. 0.35

###

target: human GPBAR1 (Homo sapiens); construct: expressed in transfected cells; host or cells: HEK-293T; test: GPBAR1 mediated transactivation, CRE-luciferase reporter in transfected HEK-293T cells; assay type: cell-based; details: ratio between % of activity toward GPBAR1 and % of activity toward FXR
We use 10 as the dividing line for GPBAR1/FXR selectivity: on or above the line is Met, below is Not met.

Q. Exam item: decide whether the reported GPBAR1/FXR selectivity for C[C@H](CC#N)[C@H]1CC[C@H]2[C@@H]3C[C@@](O)(c4ccccc4)[C@@H]4C[C@H](O)CC[C@]4(C)[C@H]3CC[C@]12C [PBT115] is at least 10.
A. Not met

Q. # bool: GPBAR1/FXR selectivity of CCC[C@]1(O)C[C@H]2[C@@H]3CC[C@H]([C@H](C)CC#N)[C@@]3(C)CC[C@@H]2[C@@]2(C)CC[C@@H](O)C[C@@H]12 [PBT111] >= 10
A. Met

Q. I'd appreciate it if you could say whether C=C[C@]1(O)C[C@@H]2[C@H](CC[C@]3(C)[C@@H]([C@H](C)CC#N)CC[C@@H]23)[C@@]2(C)CC[C@@H](O)C[C@H]21 [PBT113] has GPBAR1/FXR selectivity at least equal to 10.
A. Met

Q. Item C=CCCC[C@]1(O)C[C@H]2[C@@H]3CC[C@H]([C@H](C)CC#N)[C@@]3(C)CC[C@@H]2[C@@]2(C)CC[C@@H](O)C[C@@H]12 [PBT114] with GPBAR1/FXR selectivity of 10 or above?
A. Met

Q. Please tell me: is the compound CC(C)[C@]1(O)C[C@@H]2[C@H](CC[C@]3(C)[C@@H]([C@H](C)CC#N)CC[C@@H]23)[C@@]2(C)CC[C@@H](O)C[C@H]21 [PBT112] at or over 10 in terms of GPBAR1/FXR selectivity?
A. Not met

Q. Does CC[C@]1(O)C[C@H]2[C@@H]3CC[C@H]([C@H](C)CC#N)[C@@]3(C)CC[C@@H]2[C@@]2(C)CC[C@@H](O)C[C@@H]12 [PBT110B] have a reported GPBAR1/FXR selectivity of at least 10?
A. Not met

Q. # check: GPBAR1/FXR selectivity of C[C@H](CC#N)[C@H]1CC[C@H]2[C@@H]3C[C@](O)(Cc4ccccc4)[C@@H]4C[C@H](O)CC[C@]4(C)[C@H]3CC[C@]12C [PBT117] is greater than or equal to 10
A. Not met

Q. Reported GPBAR1/FXR selectivity at or above 10? C[C@H](CC#N)[C@H]1CC[C@H]2[C@@H]3C[C@](C)(O)[C@@H]4C[C@H](O)CC[C@]4(C)[C@H]3CC[C@]12C [PBT109B]
A. Met

Q. Hello, I need to know if C[C@H](CC#N)[C@H]1CC[C@H]2[C@@H]3C[C@@](C)(O)[C@@H]4C[C@H](O)CC[C@]4(C)[C@H]3CC[C@]12C [PBT109A] has measured GPBAR1/FXR selectivity not below 10. Thanks!
A. Met
